meta.source: ChEMBL document CHEMBL4138149

# System Name: Phosphatidylinositol 4,5-bisphosphate 3-kinase catalytic subunit alpha isoform (Homo sapiens) (UniProt P42336)
# Sequence (P42336 whole entry, canonical isoform): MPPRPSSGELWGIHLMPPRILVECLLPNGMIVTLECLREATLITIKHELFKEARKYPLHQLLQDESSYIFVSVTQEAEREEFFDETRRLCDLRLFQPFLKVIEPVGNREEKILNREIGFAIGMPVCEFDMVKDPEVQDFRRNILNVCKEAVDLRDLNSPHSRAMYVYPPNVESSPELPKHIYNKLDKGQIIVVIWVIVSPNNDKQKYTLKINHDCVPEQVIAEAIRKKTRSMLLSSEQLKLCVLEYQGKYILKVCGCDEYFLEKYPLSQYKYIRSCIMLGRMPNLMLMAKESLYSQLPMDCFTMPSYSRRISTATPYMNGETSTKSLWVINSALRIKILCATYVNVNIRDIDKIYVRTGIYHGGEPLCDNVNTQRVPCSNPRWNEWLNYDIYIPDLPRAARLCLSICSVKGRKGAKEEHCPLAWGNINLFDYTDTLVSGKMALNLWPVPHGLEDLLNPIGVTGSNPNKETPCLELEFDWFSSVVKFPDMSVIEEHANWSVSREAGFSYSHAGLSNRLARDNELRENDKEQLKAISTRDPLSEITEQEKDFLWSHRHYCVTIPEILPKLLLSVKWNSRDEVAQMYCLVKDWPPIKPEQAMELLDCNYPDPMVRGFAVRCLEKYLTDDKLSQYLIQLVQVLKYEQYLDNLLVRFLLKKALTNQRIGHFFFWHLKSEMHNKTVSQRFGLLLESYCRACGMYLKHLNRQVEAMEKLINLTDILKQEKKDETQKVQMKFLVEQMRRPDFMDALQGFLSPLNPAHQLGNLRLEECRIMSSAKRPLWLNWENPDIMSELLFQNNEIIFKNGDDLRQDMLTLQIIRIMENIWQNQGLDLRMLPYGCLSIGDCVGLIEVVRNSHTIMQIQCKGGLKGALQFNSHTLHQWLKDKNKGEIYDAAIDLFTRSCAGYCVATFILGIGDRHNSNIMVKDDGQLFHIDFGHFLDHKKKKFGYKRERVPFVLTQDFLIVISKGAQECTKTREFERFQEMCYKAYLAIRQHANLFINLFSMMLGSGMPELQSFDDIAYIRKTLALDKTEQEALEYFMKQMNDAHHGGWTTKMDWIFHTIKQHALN
# Protocol: Inhibition of PI3Kalpha (unknown origin) at 5 uM using PIP2 as substrate measured after 1 hr by Kinase-Glo luminescent assay relative to control
Reported Endpoint: inhibition (%)

1. O=C(Nc1ccc(-c2cc(N3CCOCC3)nc(N3CCOCC3)n2)cc1)Nc1ccc(Cl)c(-c2ccncc2)c1: 9.37
2. O=C(Nc1ccc(-c2nc(N3CCOCC3)nc(N3CCOCC3)n2)cc1)Nc1ccc(Cl)c(-c2cccnc2)c1: 26.6

[A] O=C(Nc1ccc(-c2nc(N3CCOCC3)nc(N3CCOCC3)n2)cc1)Nc1ccc(Cl)c(-c2ccccn2)c1
[B] O=C(Nc1ccc(-c2cc(N3CCOCC3)nc(N3CCOCC3)n2)cc1)Nc1ccc(Cl)c(-c2cccnc2)c1
[C] O=C(Nc1ccc(-c2nc(N3CCOCC3)nc(N3CCOCC3)n2)cc1)Nc1ccc(Cl)c(-c2ccccc2)c1
[D] O=C(Nc1ccc(-c2nc(N3CCOCC3)nc(N3CCOCC3)n2)cc1)Nc1ccc(Cl)c(-c2ccncc2)c1
Query :: hey, can you rank those compounds up there by inhibition? biggest number first please Note for the reader: the ranking is given by listing the labels in the order requested.
Result :: C, B, D, A
(C: 57.1%, B: 35.1%, D: 16.3%, A: 6.8%)

###

# Test system: T47D
# Protocol: Cytotoxicity against human T47D cells after 72 hrs by MTT assay
# Format: functional, cell-based
Each entry below lists one item and its recorded pIC50 value.
pIC50 here is simply -log10 of the concentration when that concentration is written in mol/L.

Previously resolved entries follow.
1. O=C(Nc1ccc(-c2cc(N3CCOCC3)nc(N3CCOCC3)n2)cc1)Nc1ccc(Cl)c(-c2ccsc2)c1: 4.73
2. O=C(Nc1ccc(-c2ccnc(N3CCOCC3)n2)cc1)Nc1ccc(Cl)c(-c2cccs2)c1: 4.61
3. O=C(Nc1ccc(-c2cc(N3CCOCC3)nc(N3CCOCC3)n2)cc1)Nc1ccc(Cl)c(-c2ccccc2)c1: 4.81
4. Nc1cc(C(F)(F)F)c(-c2cc(N3CCOCC3)nc(N3CCOCC3)n2)cn1 [BUPARLISIB]: 5.16
5. CS(=O)(=O)c1ccc(C(=O)Nc2ccc(Cl)c(-c3ccccn3)c2)c(Cl)c1 [VISMODEGIB]: 4.38

Query :: Which pIC50 reading was recorded for the molecule `O=C(Nc1ccc(-c2nc(N3CCOCC3)nc(N3CCOCC3)n2)cc1)Nc1ccc(Cl)c(-c2cccnc2)c1` ?
Result :: 5.03

Query :: Which pIC50 reading was recorded for the molecule `CS(=O)(=O)c1ccc(C(=O)Nc2ccc(-c3cc(N4CCOCC4)nc(N4CCOCC4)n3)cc2)c(Cl)c1` ?
Result :: 4.65

Query :: Which pIC50 reading was recorded for the molecule `O=C(Nc1ccc(-c2cc(N3CCOCC3)nc(N3CCOCC3)n2)cc1)Nc1ccc(Cl)c(-c2cccnc2)c1` ?
Result :: 5.40

Query :: Which pIC50 reading was recorded for the molecule `O=C(Nc1ccc(-c2ccnc(N3CCOCC3)n2)cc1)Nc1ccc(Cl)c(-c2ccsc2)c1` ?
Result :: 4.65

Query :: Which pIC50 reading was recorded for the molecule `O=C(Nc1ccc(-c2ccnc(N3CCOCC3)n2)cc1)Nc1ccc(Cl)c(-c2ccncc2)c1` ?
Result :: 4.80

Query :: Which pIC50 reading was recorded for the molecule `O=C(Nc1ccc(-c2nc(N3CCOCC3)nc(N3CCOCC3)n2)cc1)Nc1ccc(Cl)c(-c2ccsc2)c1` ?
Result :: 4.63

Query :: Which pIC50 reading was recorded for the molecule `O=C(Nc1ccc(-c2nc(N3CCOCC3)nc(N3CCOCC3)n2)cc1)Nc1ccc(Cl)c(-c2ccncc2)c1` ?
Result :: 5.10
